Target: human RORγt ligand binding domain (RORγt LBD) (Homo sapiens (Human))
Sequence (P51449 other isoform, or with tags, fused parts or gaps): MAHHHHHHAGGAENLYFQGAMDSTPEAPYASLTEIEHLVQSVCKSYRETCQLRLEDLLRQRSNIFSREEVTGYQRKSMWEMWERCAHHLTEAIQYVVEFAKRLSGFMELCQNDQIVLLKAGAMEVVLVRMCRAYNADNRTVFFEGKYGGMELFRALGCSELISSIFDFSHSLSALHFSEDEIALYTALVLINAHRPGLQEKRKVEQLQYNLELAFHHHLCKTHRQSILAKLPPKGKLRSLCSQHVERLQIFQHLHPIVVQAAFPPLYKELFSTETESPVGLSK
Assay: RORγt ThermoFluor® assay (thermal shift binding)
Conditions: read-out: ThermoFluor® Assay, Kd
endpoint.name: Kd (nM)
Numeric only. Scale: nM

The recorded Kd for entry Cn1nc(C(=O)NC[C@]2(O)CC[C@@H](S(C)(=O)=O)CC2)c(Cl)c1-c1ccc(CCCC(F)(F)F)cc1OC(F)F [Example 158] equals 16

// Kd lookup, compound = CCn1nc(C(=O)NC[C@H]2CC[C@H](S(C)(=O)=O)CC2)c(Cl)c1-c1ccc(NCC(F)(F)F)cc1OC [Example 25] , result: 31

The reported Kd of the compound COc1cc(N[C@H](C)C(F)(F)F)ccc1-c1c(Cl)c(C(=O)NC[C@H]2CC[C@H](S(C)(=O)=O)CC2)nn1CC(C)(C)O [Example 202] was 180

GET /value?item= CCn1nc(C(=O)NC[C@]2(O)CC[C@@H](S(C)(=O)=O)CC2)c(Cl)c1-c1ccc(CC(C)(C)C(F)(F)F)cc1Cl [Example 164] &field=Kd returns 0.5

Given item CCn1nc(C(=O)NC[C@]2(C(N)=O)CC[C@@H](S(C)(=O)=O)CC2)c(Cl)c1-c1ccc(N[C@H](C)C(F)(F)F)cc1OC [Example 35] , the value recorded as its Kd is 34

More entries:
// Kd value for CCn1nc(C(=O)NC[C@H]2CC[C@H](S(C)(=O)=O)CC2)c(Cl)c1-c1ccc(OC(C)C(F)(F)F)cc1OC (stereo partly drawn) [Example 212] : 7.4
